- Tested on: MDA-MB-435
- ASSAY SUMMARY: NCI tumour cell line growth inhibition, 48 h
Where a name gives a salt, the structure may show the parent alone. Activity calls are given as the source filed them. No stated cut-off is given here; in the data, active = GI50 up to about 1.1 µM and inactive = higher.
Response enum: active, inactive

O=C1c2c(O)cccc2C(C(=O)CCCCC(=O)C2c3cccc(O)c3C(=O)c3c(O)cccc32)c2cccc(O)c21; active
CSc1[nH]nc(N)c1C(=O)Nc1ccccc1; inactive
CSc1nn(C)cc2ncnc1-2; inactive

// return assay outcome for "CN(C)CCNC(=O)Cn1ccc(=O)c2c([N+](=O)[O-])cccc21"
inactive

// return assay outcome for COc1ccc2c3c(ccc2c1)NC(C(=O)O)CC3 (stereo not drawn)
inactive

// return assay outcome for "NNC(=O)CC(=O)Nc1ccc(C(=O)O)cc1"
inactive

// return assay outcome for NCCCCN [PUTRESCINE HYDROCHLORIDE]
inactive

// return assay outcome for "COc1cc(OC)nc(-n2c(N)c(C#N)c3ccc([N+](=O)[O-])cc3c2=O)n1"
inactive

====

- Test system: NCI/ADR-RES
- ASSAY SUMMARY: NCI tumour cell line growth inhibition, 48 h
Active and inactive are the calls of the source. Cut-off read from the data, not from the text of the source: active = GI50 up to about 1.1 µM and inactive = higher.
Response enum: active, inactive

These solved cases illustrate the format of a correct answer.
CN(C)CCCNc1ccc2nnn3c4ccc([N+](=O)[O-])cc4c(=O)c1c23; active
O=c1c(Cc2ccccc2)c(-c2ccccc2)[nH]n1C1=NCCN1; inactive
O=[N+]([O-])c1ccc2sc(/C=N/c3ccccn3)cc2c1; inactive
CCCCCCCCCCCCCCCCCCNc1ccn(C2OC(COP(=O)(O)OCC3OC(n4cc(C)c(=O)[nH]c4=O)CC3F)C(O)C2O)c(=O)n1 (stereo not drawn); inactive
S=P(C1CCCCC1)(C1CCCCC1)C(c1cccnc1)N1CCCC1 (stereo not drawn); inactive

// return assay outcome for "CC(C)[Si](OC1=C(C(=O)N(C)c2cccc(Cl)c2)CCCC1)(C(C)C)C(C)C"
inactive

// return assay outcome for NC1N=C(c2ccc(Cl)cc2)C2=C(N1)c1ccccc1CC2 (stereo not drawn)
inactive

// return assay outcome for O=C(CN1C(=O)c2ccccc2C1=O)OCC1CCCN2CCCCC12 (stereo not drawn)
inactive

// return assay outcome for "CCN(CC)C(=O)Cn1c2ccccc2[n+]2cc(N)ccc12"
inactive

// return assay outcome for "CCOC(=O)C[n+]1cccc(C2(c3cc4ccccc4[nH]3)OCCO2)c1"
inactive

// return assay outcome for "COc1cc([N+](=O)[O-])c(S(=O)(=O)O)cc1N"
inactive

// return assay outcome for "Nn1nnc2ccccc21"
inactive

// return assay outcome for "C1=Cc2cccc3occ(c23)C=C1"
inactive

====

Listing: GI50 of selected compounds
- Test system: SR
- ASSAY SUMMARY: NCI tumour cell line growth inhibition, 48 h
Calls of active or inactive are those of the source. No stated cut-off is given here; in the data, active = GI50 up to about 1.1 µM and inactive = higher.

CCOC(=O)c1[nH]c(CN(C)Cc2[nH]c(C(=O)OCC)c(C)c2C(=O)OCc2ccccc2)c(C(=O)OCc2ccccc2)c1C; > 100 µM (inactive)

get_value(item= "N/C(=N\N=C\c1cc2ccccc2s1)c1cnccn1" , readout=GI50) returns 6 µM (inactive)

get_value(item= CCCCCCCCCC(=O)OCC1(CO)C/C(=C/CC(C(C)C)C(C)C)C(=O)O1 (configuration not stated) , readout=GI50) returns 26.2 µM (inactive)

get_value(item= "COc1ccc(/C=C/C(=O)N[C@@H]2C(=O)N3[C@@H]2SC(C)(C)[C@@H]3C(=O)O)cc1" , readout=GI50) returns > 100 µM (inactive)

get_value(item= COc1ccc(/C(=N/O)C(c2ccc(OC)cc2)C2C(=O)Oc3ccccc32)cc1 (configuration not stated) , readout=GI50) returns > 100 µM (inactive)

get_value(item= "O=C(CCC1OCCO1)Nc1cc(NCc2ccccc2)ccc1OCc1ccccc1" , readout=GI50) returns 27.9 µM (inactive)

get_value(item= "COc1cc(C=O)ccc1Oc1nnnn1-c1ccccc1" , readout=GI50) returns 18.9 µM (inactive)

====

- Test system: HOP-92
- ASSAY SUMMARY: NCI tumour cell line growth inhibition, 48 h
Calls of active or inactive are those of the source. Rule as the data show it: active = GI50 up to about 1.1 µM and inactive = higher.
Listing: GI50 of selected compounds

Cc1nc(N)nc(N)c1CCCCc1ccccc1; 22.5 µM (inactive)
Cc1nccn1S(=O)(=O)c1ccc(Cl)cc1; 16.9 µM (inactive)
CCOC(=O)C1=C(C)C(C(=O)OC)/C(=C/c2cccc3cccnc23)C1=O (centres undefined); > 10 µM (inactive)

Turning to the following compound.
get_value(item= "CCOc1ccc(N/C(=C(/C(Cl)=C(/Cl)N2CCCCC2)[N+](=O)[O-])n2nnc3ccccc32)cc1" , readout=GI50) returns 18.2 µM (inactive)

====

- Test system: SK-MEL-2
- ASSAY SUMMARY: NCI tumour cell line growth inhibition, 48 h
Active and inactive are the calls of the source. Cut-off read from the data, not from the text of the source: active = GI50 up to about 1.1 µM and inactive = higher.
Response enum: active, inactive

CCCN(CCCCC(NC(C)=O)C(=O)NCc1ccccc1)C(=O)NC (centres undefined); inactive

// return assay outcome for "CCOc1cc2c(cc1O)/C(=N\N)C[C@@H]1[C@@H]2CC[C@]2(C)[C@@H](O)CC[C@@H]12"
inactive

// return assay outcome for "Cc1ccc(N(Cc2ccccc2)Cc2ccccc2)cc1"
inactive

// return assay outcome for "Brc1ccc2c(-c3csc(-c4c[nH]c5cc(Br)ccc45)n3)c[nH]c2c1"
inactive

// return assay outcome for "O=C1C(c2ccccc2)=[N+]([O-])c2cc([N+](=O)[O-])ccc21"
inactive

// return assay outcome for "C/C(=N\Nc1nc2cc(C)ccc2s1)c1ccccn1"
active

====

- Test system: NCI-H460
- ASSAY SUMMARY: NCI tumour cell line growth inhibition, 48 h
The source made the active and inactive calls. Cut-off read from the data, not from the text of the source: active = GI50 up to about 1.1 µM and inactive = higher.
READOUT KIND: GI50

Examples with answers:
CC(=O)N(C(C)=O)c1cc2c3c(c1)CCCN3CCC2; > 10 µM (inactive)
CC(=O)NC1=C(NC(C)(C)C)C(=O)c2ccccc2C1=O; 19.2 µM (inactive)
c1ccc2c(c1)ccc1nc3ccccn3c12; > 100 µM (inactive)

get_value(item= C=CCCC(OCOCCOC)c1cc(C)c(O[Si](C)(C)C(C)(C)C)c(C)c1 (centres undefined) , readout=GI50) returns 13.9 µM (inactive)

====

- Test system: OVCAR-4
- ASSAY SUMMARY: NCI tumour cell line growth inhibition, 48 h
Calls of active or inactive are those of the source. No stated cut-off is given here; in the data, active = GI50 up to about 1.1 µM and inactive = higher.
Listing: GI50 of selected compounds

Cc1cn([C@H]2C[C@H](N=[N+]=[N-])[C@@H](CO)O2)c(=O)[nH]c1=O; > 85.1 µM (inactive)
C=CCC1C2CCC(O[Si](C(C)C)(C(C)C)C(C)C)(C(C(=O)OC)C2)C1O (configuration not stated); > 100 µM (inactive)
CC1=CC(O)C(C(O)(C(F)(F)F)C(F)(F)F)C(C)(C)C1 (configuration not stated); > 10 µM (inactive)
C[N+]1(C)C[C@@H](O)C[C@@H]1C(=O)[O-]; > 100 µM (inactive)
CCCCSCc1nc2nc(Cl)c(Cl)nc2[nH]1; 29.5 µM (inactive)
O=C1/C(=C/c2ccco2)N=C2Sc3c([nH]cnc3=O)N12; 44.4 µM (inactive)

Turning to the following compound.
get_value(item= "COc1ccc(-c2c(C#N)c(-c3ccc(C)cc3)n(NS(=O)(=O)c3ccc(C)cc3)c(=O)c2C#N)cc1" , readout=GI50) returns 31.3 µM (inactive)

====

- Test system: MOLT-4
- ASSAY SUMMARY: NCI tumour cell line growth inhibition, 48 h
The source made the active and inactive calls. Rule as the data show it: active = GI50 up to about 1.1 µM and inactive = higher.
Listing: GI50 of selected compounds

Examples with answers:
COC(=O)c1c(O)ccc(O)c1C(C(C)=O)C(C)=O; > 100 µM (inactive)
CCCCSCc1nc2nc(Cl)c(Cl)nc2[nH]1; 19.5 µM (inactive)
O=C1NC(=S)NC(=O)C1=Cc1ccc[nH]1; 16.2 µM (inactive)
CC1OC(OC2C(CO)OC(O[C@H]3CC[C@@]4(C)C(=CC[C@H]5[C@@H]6C[C@@H]7O[C@]8(CC[C@@H](C)CN8)[C@@H](C)[C@@H]7[C@@]6(C)CC[C@@H]54)C3)C(O)C2O)C(O)C(O)C1O (stereo partly drawn); > 100 µM (inactive)
OCC1OC(n2cnc3c(Cl)nc(Nc4ccccc4)nc32)CC1O (stereo not drawn); 23.6 µM (inactive)

# "Nc1c(-c2nc3ccccc3[nH]2)sc(=S)n1-c1ccccc1" with MOLT-4: GI50 is 16.3 µM (inactive)

# "Cc1ccc(N(Cc2ccccc2)Cc2ccccc2)cc1" with MOLT-4: GI50 is 23.8 µM (inactive)

# Cc1cn(C2CC(Br)C(COC(c3ccccc3)(c3ccccc3)c3ccccc3)O2)c(=O)[nH]c1=O (stereo not drawn) with MOLT-4: GI50 is 8.17 µM (inactive)

====

- System: BT-549
- ASSAY SUMMARY: NCI tumour cell line growth inhibition, 48 h
Activity calls are given as the source filed them. No stated cut-off is given here; in the data, active = GI50 up to about 1.1 µM and inactive = higher.
READOUT KIND: GI50

N#CCc1nc(-c2cc3ccccc3oc2=O)cs1; 17.9 µM (inactive)
COc1cc2c(cc1OC)C(N)CC2=O (stereo not given); > 100 µM (inactive)
O=C(Nc1cc2c(=O)oc3ccccc3c2oc1=O)c1cccnc1; > 100 µM (inactive)
Cn1c(=O)c2[nH]c(-n3nc(-c4ccccc4)cc3N)nc2n(C)c1=O; 14.5 µM (inactive)
O=C(Cc1ccc(O)c(O)c1)NCc1c[nH]c2ccccc12; 43.9 µM (inactive)
c1ccc(-c2cnc3nc4ccccc4nc3n2)cc1; 3.43 µM (inactive)
Cc1cccc(/N=N/c2ccc(O)c(CN(C)C)c2)c1; 17.2 µM (inactive)
NS(=O)(=O)c1ccc(NC2(C(=O)O)CCCC2)cc1; > 100 µM (inactive)
C/C(=N\Nc1nc2cc(C)ccc2s1)c1ccccn1; 6.22 µM (inactive)

Turning to the following molecule.
get_value(item= "CCOc1ccc(N/C(=C(/C(Cl)=C(/Cl)N2CCCCC2)[N+](=O)[O-])n2nnc3ccccc32)cc1" , readout=GI50) returns 17.7 µM (inactive)
